study-system: kinases (Homo sapiens, UniProt P00533, DEL746-750)
Construct: purchased Eurofins/DiscoveRx; host or cells: E. coli BL21-derived host (T7 phage display) for most kinases; HEK-293 for the rest
measurement-protocol: KINOMEscan kinase binding assay (Eurofins/DiscoveRx), % Ctrl
particulars: target EGFR(E746-A750del); 1 μM
Exercise: state measured % Ctrl, EGFR(E746-A750del) for each of the molecules provided.

Req: % Ctrl, EGFR(E746-A750del) lookup needed for CN1CCSCCOc2cc3c(cc2Cl)NC(=O)/C3=C\c2[nH]ccc2C1=O [Ex. 153] , thanks.
Resp: 56 % Ctrl

Req: Cc1cc2c([nH]1)/C=C1\C(=O)Nc3ccc(cc31)-c1c(noc1C)CNCCN(C)C2=O [Ex. 139] , same question.
Resp: 72 % Ctrl

Req: Queued: Cc1cc2c([nH]1)/C=C1\C(=O)Nc3cnc(cc31)-c1cn[nH]c1CNCCN(C)C2=O [Ex. 55]
Resp: 74 % Ctrl

Req: Another molecule to look at: CN1CCOCCOc2cc3c(cc2Cl)NC(=O)/C3=C\c2[nH]ccc2C1=O [Ex. 143]
Resp: 65 % Ctrl

Req: Now try Cc1cc2c([nH]1)/C=C1\C(=O)Nc3cc(Cl)c(cc31)OCCO[C@@H](C(=O)N1CCN(C)CC1)CN(C)C2=O [Ex. 138] .
Resp: 78 % Ctrl

Req: What do you get for Cc1cc2c([nH]1)/C=C1\C(=O)Nc3ccc(cc31)-c1c(C)nn(C)c1COCCN(C)C2=O [Ex. 146] ?
Resp: 73 % Ctrl

Req: Now try Cc1nn(C)c2c1-c1ccc3c(c1)/C(=C/c1[nH]ccc1C(=O)N(C)CCCO2)C(=O)N3 [Ex. 150] .
Resp: 98 % Ctrl

====

study-system: kinases (Homo sapiens, UniProt P00519, F317L)
Construct: purchased Eurofins/DiscoveRx; host or cells: E. coli BL21-derived host (T7 phage display) for most kinases; HEK-293 for the rest
Sequence (P00519 whole entry F317L): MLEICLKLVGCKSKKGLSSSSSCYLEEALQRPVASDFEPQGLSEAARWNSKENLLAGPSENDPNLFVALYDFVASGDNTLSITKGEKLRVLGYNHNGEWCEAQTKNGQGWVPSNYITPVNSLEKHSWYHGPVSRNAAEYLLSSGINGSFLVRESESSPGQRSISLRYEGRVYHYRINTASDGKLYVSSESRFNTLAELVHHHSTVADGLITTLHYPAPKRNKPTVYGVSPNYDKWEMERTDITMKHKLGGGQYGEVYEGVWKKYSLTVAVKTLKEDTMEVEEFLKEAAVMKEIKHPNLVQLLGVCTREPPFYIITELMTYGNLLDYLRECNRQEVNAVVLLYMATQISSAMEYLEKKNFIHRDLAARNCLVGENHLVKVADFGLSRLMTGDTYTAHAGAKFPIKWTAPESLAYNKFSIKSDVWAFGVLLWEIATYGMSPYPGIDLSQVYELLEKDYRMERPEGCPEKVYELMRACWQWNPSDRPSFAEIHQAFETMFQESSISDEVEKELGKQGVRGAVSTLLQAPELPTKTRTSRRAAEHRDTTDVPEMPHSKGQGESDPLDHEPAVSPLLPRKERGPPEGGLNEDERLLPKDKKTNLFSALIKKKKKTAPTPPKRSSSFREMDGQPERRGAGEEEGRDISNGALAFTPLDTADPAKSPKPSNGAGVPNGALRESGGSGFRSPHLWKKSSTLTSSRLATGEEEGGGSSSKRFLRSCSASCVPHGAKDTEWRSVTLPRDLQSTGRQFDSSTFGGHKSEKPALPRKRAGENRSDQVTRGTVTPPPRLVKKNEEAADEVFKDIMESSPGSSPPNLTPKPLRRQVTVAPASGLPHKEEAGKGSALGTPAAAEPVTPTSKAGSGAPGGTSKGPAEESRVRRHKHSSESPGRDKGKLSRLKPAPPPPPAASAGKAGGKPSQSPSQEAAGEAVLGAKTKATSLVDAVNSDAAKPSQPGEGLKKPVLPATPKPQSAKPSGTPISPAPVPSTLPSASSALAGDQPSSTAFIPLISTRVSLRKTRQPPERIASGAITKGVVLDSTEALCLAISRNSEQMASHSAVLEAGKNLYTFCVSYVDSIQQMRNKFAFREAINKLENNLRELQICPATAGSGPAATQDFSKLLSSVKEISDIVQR
measurement-protocol: KINOMEscan kinase binding assay (Eurofins/DiscoveRx), % Ctrl
particulars: target ABL1(F317L)-nonphosphorylated; 1 μM
Provide the recorded % Ctrl, ABL1(F317L)-nonphosphorylated for the entries that follow.
Please respond with the number in % Ctrl and leave the unit unwritten.

Req: What measured % Ctrl, ABL1(F317L)-nonphosphorylated is associated with Cc1cc2c([nH]1)/C=C1\C(=O)Nc3ccc(cc31)-c1c(C)nn(C)c1COCCN(C)C2=O [Ex. 146] on kinases (Homo sapiens, UniProt P00519, F317L)?
Resp: 89

Req: Now consider CN1CCSCCOc2cc3c(cc2Cl)NC(=O)/C3=C\c2[nH]ccc2C1=O [Ex. 153] .
Resp: 4.3

Req: Please do the same for Cc1cc2c([nH]1)/C=C1\C(=O)Nc3ccc(cc31)-c1c(noc1C)CNCCN(C)C2=O [Ex. 139] as well.
Resp: 48

====

study-system: kinases (Homo sapiens, UniProt P00533, G719C)
Construct: purchased Eurofins/DiscoveRx; host or cells: E. coli BL21-derived host (T7 phage display) for most kinases; HEK-293 for the rest
measurement-protocol: KINOMEscan kinase binding assay (Eurofins/DiscoveRx), % Ctrl
particulars: 1 μM; EGFR(G719C)
Experimental: Kinase binding assays were performed at Eurofins/DiscoveRx using the general KINOMEscan Protocol (Fabian, M. A. et al., “A small molecule-kinase interaction map for clinical kinase inhibitors,” Nat. Biotechnol. 2005, 23(3):329-36). For most assays, kinase-tagged T7 phage strains were prepared in an E. coli host derived from the BL21 strain. […] The kinase concentration in the eluates was measured by qPCR. […]
experimental-readout: % Ctrl, EGFR(G719C) (% Ctrl)
Kindly provide the numeric value in % Ctrl only, without the unit symbol.

Req: Suppose we examine the molecule `Cc1cc2c([nH]1)/C=C1\C(=O)Nc3cc(Cl)c(cc31)OCCOCCN(C)C2=O` ; what % Ctrl, EGFR(G719C) value has been reported?
Resp: 93

Req: Now give it for `Cc1cc2c([nH]1)/C=C1\C(=O)Nc3ccc(cc31)OCCOCCN(C)C2=O` too.
Resp: 92

Req: // repeat for `Cc1cc2c([nH]1)/C=C1\C(=O)Nc3ccc(cc31)OCCOCCNC2=O` and report
Resp: 100

Req: Another molecule to look at: `Cc1cc2c([nH]1)/C=C1\C(=O)Nc3ccc(cc31)-c1c(noc1C)COCCN(C)C2=O`
Resp: 97

Req: Same again, this time with `Cc1cc2c([nH]1)/C=C1\C(=O)Nc3cc(Cl)c(cc31)OCCO[C@@H](C(=O)NC1CCNCC1)CN(C)C2=O`
Resp: 89

Req: Quick one: `Cc1cc2c([nH]1)/C=C1\C(=O)Nc3ccc(cc31)CN(C)C(=O)COCCNC2=O`
Resp: 73

Req: Similarly, `Cc1cc2c([nH]1)/C=C1\C(=O)Nc3ccc(cc31)-c1c(C)n[nH]c1CNCCN(C)C2=O` ?
Resp: 90

Req: Please give the result for `Cc1cc2c([nH]1)/C=C1\C(=O)Nc3ccc(cc31)-c1cnn(C)c1COCCN(C)C2=O` too.
Resp: 87

====

Provide the recorded % Ctrl, KIT(V559D) for the entries that follow.
study-system: kinases (Homo sapiens, UniProt P10721, V559D)
Construct: purchased Eurofins/DiscoveRx; host or cells: E. coli BL21-derived host (T7 phage display) for most kinases; HEK-293 for the rest
Sequence (P10721 26-976 V559D): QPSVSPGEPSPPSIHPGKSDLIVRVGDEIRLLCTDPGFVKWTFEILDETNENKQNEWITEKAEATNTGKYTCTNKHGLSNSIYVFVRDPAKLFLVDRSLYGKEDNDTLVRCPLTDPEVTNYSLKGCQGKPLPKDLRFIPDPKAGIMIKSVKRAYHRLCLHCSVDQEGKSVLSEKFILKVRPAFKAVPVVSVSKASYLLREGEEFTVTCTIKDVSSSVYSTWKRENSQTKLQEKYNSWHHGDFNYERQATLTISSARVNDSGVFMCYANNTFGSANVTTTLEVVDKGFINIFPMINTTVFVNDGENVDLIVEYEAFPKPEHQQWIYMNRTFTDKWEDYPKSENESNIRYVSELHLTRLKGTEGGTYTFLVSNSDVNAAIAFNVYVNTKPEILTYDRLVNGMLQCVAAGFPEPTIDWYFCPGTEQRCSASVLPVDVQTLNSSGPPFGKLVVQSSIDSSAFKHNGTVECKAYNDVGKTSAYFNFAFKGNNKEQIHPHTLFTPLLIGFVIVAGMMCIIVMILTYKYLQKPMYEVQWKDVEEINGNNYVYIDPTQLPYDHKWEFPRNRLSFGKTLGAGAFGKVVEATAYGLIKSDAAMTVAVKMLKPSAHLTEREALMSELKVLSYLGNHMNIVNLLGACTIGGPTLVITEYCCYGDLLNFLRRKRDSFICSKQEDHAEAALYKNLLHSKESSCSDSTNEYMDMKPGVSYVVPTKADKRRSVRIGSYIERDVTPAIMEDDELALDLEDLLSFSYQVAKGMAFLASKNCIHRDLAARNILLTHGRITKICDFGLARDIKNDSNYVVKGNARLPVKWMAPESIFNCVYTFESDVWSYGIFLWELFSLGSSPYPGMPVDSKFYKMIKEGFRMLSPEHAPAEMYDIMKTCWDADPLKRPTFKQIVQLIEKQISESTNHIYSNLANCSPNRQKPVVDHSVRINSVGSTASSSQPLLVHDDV
measurement-protocol: KINOMEscan kinase binding assay (Eurofins/DiscoveRx), % Ctrl
particulars: 1 μM; target KIT(V559D)
Number in % Ctrl, nothing else.

Req: Using the record for `Cc1cc2c([nH]1)/C=C1\C(=O)Nc3ccc(cc31)-c1cnn(C)c1OCCCN(C)C2=O` , report its % Ctrl, KIT(V559D).
Resp: 54

Req: Proceed to `Cc1cc2c([nH]1)/C=C1\C(=O)Nc3ccc(cc31)-c1c(noc1C(C)C)COCCN(C)C2=O`
Resp: 92

Req: Same read-out for `CN1CCOc2cc3c(cc2Cl)NC(=O)/C3=C\c2[nH]ccc2C(=O)N(C)CC1` ?
Resp: 6.9

Req: Now the same for `Cc1cc2c([nH]1)/C=C1\C(=O)Nc3cnc(cc31)-c1cnn(C)c1CN(C)CCN(C)C2=O`
Resp: 42

Req: Next compound up: `Cc1cc2c([nH]1)/C=C1\C(=O)Nc3cc(Cl)c(cc31)SCCOCCN(C)C2=O`
Resp: 1.2

====

study-system: kinases (Homo sapiens, UniProt P00519, F317I)
Construct: purchased Eurofins/DiscoveRx; host or cells: E. coli BL21-derived host (T7 phage display) for most kinases; HEK-293 for the rest
Sequence (P00519 whole entry F317I): as the sequence (P00519 whole entry F317L) above, with L317I counted along it
measurement-protocol: KINOMEscan kinase binding assay (Eurofins/DiscoveRx), % Ctrl
particulars: 1 μM; ABL1(F317I)-nonphosphorylated
experimental-readout: % Ctrl, ABL1(F317I)-nonphosphorylated (% Ctrl)
Kindly provide the numeric value in % Ctrl only, without the unit symbol.

Req: Fill blank: measured % Ctrl, ABL1(F317I)-nonphosphorylated of the compound `Cc1cc2c([nH]1)/C=C1\C(=O)Nc3cc(Cl)c(cc31)OCCOCCN(C)C2=O` is ____.
Resp: 0

Req: Also, `Cc1cc2c([nH]1)/C=C1\C(=O)Nc3ccc(cc31)-c1c(C)n[nH]c1CNCCN(C)C2=O` please.
Resp: 2.6

Req: Moving on to the next compound: `Cc1cc2c([nH]1)/C=C1\C(=O)Nc3ccc(cc31)O[C@@H](C)COCCN(C)C2=O`
Resp: 22

Req: Again, but for `Cc1cc2c([nH]1)/C=C1\C(=O)Nc3ccc(cc31)-c1cnn(C)c1COCCN(C)C2=O`
Resp: 0

Req: Follow-up item: `Cc1cc2c([nH]1)/C=C1\C(=O)Nc3cnc(cc31)-c1cnn(C)c1COCCNC2=O`
Resp: 100

====

Would you mind telling me the reported % Ctrl, FLT3(D835Y) of each entry?
study-system: kinases (Homo sapiens, UniProt P36888, D835Y)
Construct: purchased Eurofins/DiscoveRx; host or cells: E. coli BL21-derived host (T7 phage display) for most kinases; HEK-293 for the rest
Sequence (P36888 27-993 D835Y): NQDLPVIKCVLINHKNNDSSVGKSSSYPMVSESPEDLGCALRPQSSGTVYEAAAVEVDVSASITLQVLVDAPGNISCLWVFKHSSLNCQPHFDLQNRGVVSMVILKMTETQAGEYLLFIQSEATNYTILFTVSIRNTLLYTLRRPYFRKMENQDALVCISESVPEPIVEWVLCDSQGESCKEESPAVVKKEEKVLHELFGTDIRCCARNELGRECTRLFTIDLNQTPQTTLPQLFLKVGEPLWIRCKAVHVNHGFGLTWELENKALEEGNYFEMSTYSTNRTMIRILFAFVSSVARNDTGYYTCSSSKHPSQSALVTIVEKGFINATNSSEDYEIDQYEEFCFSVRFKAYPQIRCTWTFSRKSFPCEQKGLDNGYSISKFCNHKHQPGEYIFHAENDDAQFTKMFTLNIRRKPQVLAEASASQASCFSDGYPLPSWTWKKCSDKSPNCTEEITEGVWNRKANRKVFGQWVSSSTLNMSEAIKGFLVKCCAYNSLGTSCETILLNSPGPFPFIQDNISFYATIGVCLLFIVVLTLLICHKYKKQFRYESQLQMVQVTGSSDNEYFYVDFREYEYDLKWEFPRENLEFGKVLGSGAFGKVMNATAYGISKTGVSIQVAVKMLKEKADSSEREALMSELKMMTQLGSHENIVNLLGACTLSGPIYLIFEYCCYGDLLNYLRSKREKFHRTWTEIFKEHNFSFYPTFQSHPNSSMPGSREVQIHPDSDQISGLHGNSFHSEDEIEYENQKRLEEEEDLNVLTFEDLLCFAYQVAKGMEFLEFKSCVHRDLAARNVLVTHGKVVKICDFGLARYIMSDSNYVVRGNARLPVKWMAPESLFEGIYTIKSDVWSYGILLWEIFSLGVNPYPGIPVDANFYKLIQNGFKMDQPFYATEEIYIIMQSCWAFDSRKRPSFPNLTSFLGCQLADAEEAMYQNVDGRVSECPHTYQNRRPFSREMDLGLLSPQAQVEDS
measurement-protocol: KINOMEscan kinase binding assay (Eurofins/DiscoveRx), % Ctrl
particulars: target FLT3(D835Y); 1 μM
Provide only the numeric value, understood in % Ctrl.

Req: State the recorded % Ctrl, FLT3(D835Y) for this entry: Cc1cc2c([nH]1)/C=C1\C(=O)Nc3ccc(cc31)-c1c(noc1C)CNCCN(C)C2=O [Ex. 139]
Resp: 2.5

Req: How about this compound: Cc1cc2c([nH]1)/C=C1\C(=O)Nc3cc(Cl)c(cc31)OCCO[C@@H](C(=O)N1CCN(C)CC1)CN(C)C2=O [Ex. 138]
Resp: 45

Req: Entry to check: Cc1cc2c([nH]1)/C=C1\C(=O)Nc3ccc(cc31)-c1c(C)nn(C)c1COCCN(C)C2=O [Ex. 146]
Resp: 22

Req: For CN1CCSCCOc2cc3c(cc2Cl)NC(=O)/C3=C\c2[nH]ccc2C1=O [Ex. 153] then?
Resp: 1.7

These measurements were taken from patent US20230257396A1.
